The entries below are paired with their reported SPOT intensity.
measurement_target: T1, Lsb1, P53281
T1 sequence (P53281 45-122, looked up): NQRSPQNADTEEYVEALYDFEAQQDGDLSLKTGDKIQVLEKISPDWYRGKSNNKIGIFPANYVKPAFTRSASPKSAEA
experimental_details: SPOT array
experimental_parameters: median of control spots 388

- binder: "LPMNIQPDLPPRKIM"
  SPOT intensity: 285
- binder: "HRRRRVFSIPSLKSI"
  SPOT intensity: 114
- binder: "GKLKHIPRRPYEIER"
  SPOT intensity: 5
- binder: "AERNYAPRLPRRETS"
  SPOT intensity: 352
